# test name: Partition coefficient (logP)
# Type: physicochemical
# condition details: octanol/water
Entries and their measured logP follow.
attribute measured: logP

{"compound": "CC(C)(C)C1CS(=O)(=O)C(c2ccc(F)cc2)S(=O)(=O)C1 (stereo not drawn)", "attribute measured": "logP", "result value": 0.43}
{"compound": "CC(C)(C)C1CSC(c2ccc(F)cc2)SC1 (stereo not drawn)", "attribute measured": "logP", "result value": 4.97}
{"compound": "CC1(c2ccc(C#N)cc2)SCC(C(C)(C)C)CS1 (stereo not drawn)", "attribute measured": "logP", "result value": 4.89}
{"compound": "C#Cc1ccc(C2SCC(C(C)(C)C)CS2)cc1 (stereo not drawn)", "attribute measured": "logP", "result value": 4.96}
{"compound": "CC(C)(C)C1CS(=O)(=O)C(C)(c2ccc(C#N)cc2)S(=O)(=O)C1 (stereo not drawn)", "attribute measured": "logP", "result value": 0.351}
{"compound": "CC(C)(C)C1CSC(c2ccc(C#N)cc2)SC1 (stereo not drawn)", "attribute measured": "logP", "result value": 4.38}
{"compound": "CC(C)(C)C1CS(=O)(=O)C(C)(c2ccc(I)cc2)S(=O)(=O)C1 (stereo not drawn)", "attribute measured": "logP", "result value": 1.95}
{"compound": "CC1(c2ccc(I)cc2)SCC(C(C)(C)C)CS1 (stereo not drawn)", "attribute measured": "logP", "result value": 6.5}
